# tgt: panel of 442 kinases (Homo sapiens, UniProt Q96NX5)
# Construct: purchased KINOMEscan
# Sequence (Q96NX5 whole entry): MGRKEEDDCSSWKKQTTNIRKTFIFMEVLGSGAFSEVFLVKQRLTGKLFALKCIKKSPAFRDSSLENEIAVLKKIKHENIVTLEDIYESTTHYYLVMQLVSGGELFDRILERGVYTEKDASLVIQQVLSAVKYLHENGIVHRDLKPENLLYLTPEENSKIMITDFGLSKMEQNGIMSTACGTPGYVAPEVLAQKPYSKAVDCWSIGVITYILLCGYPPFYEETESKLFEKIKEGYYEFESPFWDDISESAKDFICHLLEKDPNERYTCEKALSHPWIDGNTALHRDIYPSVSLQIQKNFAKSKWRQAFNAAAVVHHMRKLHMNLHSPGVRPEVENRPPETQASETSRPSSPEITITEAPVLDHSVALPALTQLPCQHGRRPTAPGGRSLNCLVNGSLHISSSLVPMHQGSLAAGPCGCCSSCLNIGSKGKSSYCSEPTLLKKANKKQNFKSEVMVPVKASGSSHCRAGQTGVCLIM
# Type: binding
# assay_conditions: Compound Concentration 10 µM
The following molecules are shown together with reported KINOMEscan: CAMK1G values.

Please review the following examples before continuing.
{"molecule": "CCOc1cc(C(=O)N2CCC(N3CCN(C)CC3)CC2)ccc1Nc1ncc2c(n1)N(C1CCCC1)c1ccccc1C(=O)N2C [Compound 26]", "result": 95}
{"molecule": "COc1cc(C(=O)N2CCC(N3CCN(C)CC3)CC2)ccc1Nc1ncc2c(n1)N(C)c1ccccc1C(=O)N2C [15 (LRRK2-IN-1)]", "result": 74}
{"molecule": "COc1cc(C(=O)N2CCC(N3CCN(C)CC3)CC2)ccc1Nc1ncc2c(n1)N(C1CCCC1)c1ccccc1C(=O)N2C [Compound 25]", "result": 90}

Now for another entry.
Summary line: COc1cc(C(=O)N2CCC(N3CCN(C)CC3)CC2)ccc1Nc1ncc2c(n1)N1CCc3cccc(c31)C(=O)N2C [Compound 24] , panel of 442 kinases (Homo sapiens, UniProt Q96NX5), reported KINOMEscan: CAMK1G = 56

Data origin: paper PMC3914206
